TESTED_ON: human ACC2 (Homo sapiens, UniProt O00763)
Construct: made in house; host or cells: insect cells (baculoviral expression system)
Sequence (O00763 129-2458 limits assumed): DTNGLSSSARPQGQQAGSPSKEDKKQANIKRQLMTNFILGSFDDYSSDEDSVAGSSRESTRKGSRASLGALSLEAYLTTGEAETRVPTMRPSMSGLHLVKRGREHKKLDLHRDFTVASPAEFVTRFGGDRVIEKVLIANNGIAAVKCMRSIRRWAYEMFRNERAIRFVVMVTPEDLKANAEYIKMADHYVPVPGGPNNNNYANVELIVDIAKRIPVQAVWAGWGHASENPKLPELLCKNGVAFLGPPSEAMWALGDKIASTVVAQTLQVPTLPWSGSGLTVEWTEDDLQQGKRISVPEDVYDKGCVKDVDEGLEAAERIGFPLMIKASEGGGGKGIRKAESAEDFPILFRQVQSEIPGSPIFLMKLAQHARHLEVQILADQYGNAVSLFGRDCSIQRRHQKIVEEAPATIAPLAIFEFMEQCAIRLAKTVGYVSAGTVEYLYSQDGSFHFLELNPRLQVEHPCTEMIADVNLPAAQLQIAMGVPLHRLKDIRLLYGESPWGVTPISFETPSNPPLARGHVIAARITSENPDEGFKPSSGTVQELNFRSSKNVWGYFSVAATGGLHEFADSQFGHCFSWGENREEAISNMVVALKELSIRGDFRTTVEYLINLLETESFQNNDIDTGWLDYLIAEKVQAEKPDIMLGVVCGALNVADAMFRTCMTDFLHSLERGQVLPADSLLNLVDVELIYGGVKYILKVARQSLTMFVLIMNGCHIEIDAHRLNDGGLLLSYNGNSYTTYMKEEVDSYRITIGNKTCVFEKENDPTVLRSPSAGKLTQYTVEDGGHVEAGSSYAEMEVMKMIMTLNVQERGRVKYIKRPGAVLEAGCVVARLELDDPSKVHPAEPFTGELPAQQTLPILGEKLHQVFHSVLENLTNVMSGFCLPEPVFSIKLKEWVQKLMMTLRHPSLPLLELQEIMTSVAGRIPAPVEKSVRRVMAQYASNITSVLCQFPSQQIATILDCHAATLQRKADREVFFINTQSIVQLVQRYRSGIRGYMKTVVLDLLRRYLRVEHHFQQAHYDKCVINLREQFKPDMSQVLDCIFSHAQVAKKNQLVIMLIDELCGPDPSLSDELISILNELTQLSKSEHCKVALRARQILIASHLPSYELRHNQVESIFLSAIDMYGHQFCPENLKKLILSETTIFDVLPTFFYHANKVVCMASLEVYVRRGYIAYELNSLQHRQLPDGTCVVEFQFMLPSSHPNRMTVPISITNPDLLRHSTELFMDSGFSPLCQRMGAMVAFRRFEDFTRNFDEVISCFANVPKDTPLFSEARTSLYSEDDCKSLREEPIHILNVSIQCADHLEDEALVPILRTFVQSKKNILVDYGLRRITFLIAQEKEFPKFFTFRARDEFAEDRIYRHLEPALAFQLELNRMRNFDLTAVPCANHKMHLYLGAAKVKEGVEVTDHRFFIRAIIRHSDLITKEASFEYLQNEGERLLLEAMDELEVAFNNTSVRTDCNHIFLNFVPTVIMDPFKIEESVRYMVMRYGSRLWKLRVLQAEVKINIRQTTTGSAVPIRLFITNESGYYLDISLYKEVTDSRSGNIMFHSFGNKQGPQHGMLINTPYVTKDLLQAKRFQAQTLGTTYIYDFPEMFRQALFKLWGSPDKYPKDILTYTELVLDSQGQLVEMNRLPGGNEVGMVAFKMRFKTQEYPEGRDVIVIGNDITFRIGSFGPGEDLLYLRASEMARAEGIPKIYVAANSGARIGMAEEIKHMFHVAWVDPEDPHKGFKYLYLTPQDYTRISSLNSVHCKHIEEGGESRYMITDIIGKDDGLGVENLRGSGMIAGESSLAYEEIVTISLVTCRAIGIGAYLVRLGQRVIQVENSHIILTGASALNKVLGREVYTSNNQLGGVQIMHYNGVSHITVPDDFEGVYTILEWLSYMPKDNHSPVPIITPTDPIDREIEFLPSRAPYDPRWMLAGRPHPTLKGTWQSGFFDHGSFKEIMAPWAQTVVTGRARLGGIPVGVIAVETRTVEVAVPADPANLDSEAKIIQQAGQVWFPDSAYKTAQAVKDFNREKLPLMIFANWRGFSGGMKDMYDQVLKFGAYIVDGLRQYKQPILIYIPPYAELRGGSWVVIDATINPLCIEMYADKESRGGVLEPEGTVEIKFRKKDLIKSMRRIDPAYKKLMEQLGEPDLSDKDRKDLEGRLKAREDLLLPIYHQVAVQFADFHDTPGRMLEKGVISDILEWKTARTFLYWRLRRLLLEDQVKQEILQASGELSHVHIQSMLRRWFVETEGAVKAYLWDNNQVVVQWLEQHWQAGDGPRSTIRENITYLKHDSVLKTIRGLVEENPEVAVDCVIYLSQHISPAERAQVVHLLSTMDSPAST
TEST_NAME: ACC2 assay, spectrophotometric 384 well assay (NADH-linked, coupled lactate dehydrogenase/pyruvate kinase)
Format: biochemical
SETUP_CONDITIONS: ACC2 assay; human ACC2 construct lacking 128 N-terminal amino acids; 25° C., 340 nm, 15 minutes; read-out: IC50
ATTRIBUTE_MEASURED: IC50 (nM)

molecule="C[C@H](NC(=O)N(C)C1CC1)c1ccc(N2CC(Oc3ccc(OCC4CC4)cc3)C2)cc1 [Example 4.17]" attribute_measured=IC50 unit_abbrev=nM reported_value=1130
molecule="CC(=O)N[C@@H](C)c1ccc(N2CC(Oc3ccc4oc(C)cc4c3)C2)cc1 [Example 10.11]" attribute_measured=IC50 unit_abbrev=nM reported_value=100
molecule="CCOc1ccc(OC2CN(c3ccc([C@H](C)NC4=CC(=O)OC4)cc3)C2)cc1 [Example 5.1]" attribute_measured=IC50 unit_abbrev=nM reported_value=340
molecule="CCOc1ccc(OC2CN(c3ccc([C@H](C)NC(=O)CCCNC(C)=O)cc3)C2)cc1 [Example 1.55]" attribute_measured=IC50 unit_abbrev=nM reported_value=440
molecule="CCOc1cc(F)c(OC2CN(c3ccc([C@H](C)NC(C)=O)cc3)C2)c(F)c1 [Example 10.6]" attribute_measured=IC50 unit_abbrev=nM reported_value=330
molecule="C[C@H](NC(=O)C1CC1)c1ccc(N2CC(Oc3ccc(OC(C)(C)C)cc3)C2)cc1 [Example 10.22]" attribute_measured=IC50 unit_abbrev=nM reported_value=1270
molecule="CC(=O)N[C@@H](C)c1ccc(N2CC(Oc3cccc(N(C)CC(C)(C)O)n3)C2)cc1 [Example 12.1]" attribute_measured=IC50 unit_abbrev=nM reported_value=810
molecule="CCOc1ccc(OC2CN(c3ccc([C@H](C)NC(=O)C4CC(=O)N(C)C4)cc3)C2)cc1 (stereo partly shown) [Example 1.46]" attribute_measured=IC50 unit_abbrev=nM reported_value=1730
molecule="COCCOc1ccc(OC2CN(c3ccc([C@H](C)NC(C)=O)cc3)C2)cc1 [Example 10.19]" attribute_measured=IC50 unit_abbrev=nM reported_value=140
molecule="CCOc1ccc(OC2CN(c3ccc([C@H](C)NC(=O)Cn4cncn4)cc3)C2)cc1 [Example 1.61]" attribute_measured=IC50 unit_abbrev=nM reported_value=1440
molecule="CCOc1ccc(OC2CN(c3ccc([C@H](C)NC(=O)C(C)(C)C#N)cc3)C2)cc1 [Example 1.68]" attribute_measured=IC50 unit_abbrev=nM reported_value=1520
molecule="CCOc1ccc(OC2CN(c3ccc([C@H](C)NC(=O)c4cnc(NC(C)=O)s4)cc3)C2)cc1 [Example 1.60]" attribute_measured=IC50 unit_abbrev=nM reported_value=320
molecule="CCOc1ccc(OC2CN(c3ccc([C@H](C)NC(=O)C(C)(C)OC)cc3)C2)cc1 [Example 1.40]" attribute_measured=IC50 unit_abbrev=nM reported_value=6430
molecule="CCOc1ccc(OC2CN(c3ccc([C@H](C)NC(=O)Cc4cc(C)no4)cc3)C2)cc1 [Example 1.54]" attribute_measured=IC50 unit_abbrev=nM reported_value=540
molecule="CCOc1ccc(OC2CN(c3ccc([C@H](C)NC(=O)Cc4c[nH]cn4)cc3)C2)cc1 [Example 1.47]" attribute_measured=IC50 unit_abbrev=nM reported_value=1330
molecule="CCCOc1ccc(OC2CN(c3ccc([C@H](C)NC(C)=O)cc3)C2)cc1 [Example 9.3]" attribute_measured=IC50 unit_abbrev=nM reported_value=50
